target under test: Full length ERK3 (NanoLuc fusion) (Homo sapiens)
Construct: Full length ERK3 was cloned into pFC32K (Promega, Madison, WI, USA); expressed in transfected cells; host or cells: HEK293T
Sequence (Q16659 whole entry, the tested form may be a part): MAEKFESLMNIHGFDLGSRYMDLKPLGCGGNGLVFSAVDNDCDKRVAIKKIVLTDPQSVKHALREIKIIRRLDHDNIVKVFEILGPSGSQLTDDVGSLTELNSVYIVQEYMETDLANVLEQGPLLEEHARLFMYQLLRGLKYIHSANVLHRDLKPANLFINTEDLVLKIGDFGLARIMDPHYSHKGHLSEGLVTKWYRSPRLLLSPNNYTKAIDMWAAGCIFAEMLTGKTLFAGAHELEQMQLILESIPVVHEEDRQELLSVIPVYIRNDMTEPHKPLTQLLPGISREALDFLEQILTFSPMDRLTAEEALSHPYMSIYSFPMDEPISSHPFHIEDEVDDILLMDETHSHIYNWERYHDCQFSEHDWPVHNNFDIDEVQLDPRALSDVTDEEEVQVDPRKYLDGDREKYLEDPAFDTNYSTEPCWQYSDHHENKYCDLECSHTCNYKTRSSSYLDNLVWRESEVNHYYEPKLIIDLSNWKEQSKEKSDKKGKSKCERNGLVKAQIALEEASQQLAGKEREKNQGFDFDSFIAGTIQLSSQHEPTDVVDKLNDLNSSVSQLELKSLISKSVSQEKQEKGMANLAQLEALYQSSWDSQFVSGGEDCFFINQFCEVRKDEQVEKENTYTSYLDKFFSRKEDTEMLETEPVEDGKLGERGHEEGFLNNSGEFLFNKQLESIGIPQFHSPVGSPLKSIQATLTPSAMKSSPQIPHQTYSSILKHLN
method summary: Cell-based NanoBRET assay (tracer displacement) in HEK293T cells
test parameters: HEK-293T, 2 h; Table S3; single dose 10 µM; ratio to DMSO control; HEK293T; read-out: Norm.BRET 10 µM
# remaining activity at 10 µM per entry
Kindly provide the numeric value in % only, without the unit symbol.

- NC(=O)c1cnc(N[C@@H]2CCCC[C@@H]2N)nc1Nc1cccc(-n2nccn2)c1 [PRT062607]: 60.1
- O=C(Nc1cccc(Nc2ncc(Br)c(NCCc3cnc[nH]3)n2)c1)N1CCCC1 [BX-912]: 53.2
- Cc1cc(Nc2cc(N3CCN(C)CC3)nc(/C=C/c3ccccc3)n2)n[nH]1 [ENMD-2076]: 58.5
- Nc1nc(Nc2ccc(S(N)(=O)=O)cc2)nn1C(=O)c1c(F)cccc1F [JNJ-7706621]: 17
- CNC(=O)c1nn(C)c2c1C(C)(C)Cc1cnc(Nc3ccc(N4CCN(C)CC4)cc3)nc1-2 [Milciclib]: 26.8

Now take the following compound into account.
Name the recorded remaining activity at 10 µM for Nc1cccc(-c2cc3c(Oc4cccc(O)c4)ncnc3[nH]2)c1 [TWS119] . 28.1

====

target under test: ERK3 kinase domain (Homo sapiens, UniProt Q16659)
Construct: The kinase domain of ERK3 (M9-I327) was subcloned into pNIC28–Bsa4; His6 (N, cleaved yes); made in house; host or cells: E. coli (co-expressed with lambda phosphatase)
method summary: Melting temperature assay (differential scanning fluorimetry, DSF)
Type: binding
test parameters: Table S2; 10 µM inhibitors; read-out: ΔTm Initial Screen
Reported ΔTm at 10 µM values for the following molecules.
Kindly format the answer as number then unit.

Some molecules with recorded ΔTm at 10 µM:
* Fc1ccc(-c2ncn(C3CCNCC3)c2-c2ccnc(Oc3ccc4c(c3)OCO4)n2)cc1 [SB-250715] | 1.1 °C
* NS(=O)(=O)c1ccc(N/N=C2\C(=O)Nc3ccc4ncccc4c32)cc1 [GW305178X] | 1.04 °C
* COc1ccc(Cl)c(Nc2nc3ccccc3nc2NS(=O)(=O)c2cccc(NC(=O)C(C)(C)N)c2)c1 [XL147] | 1.96 °C
* O=C(c1ccc(Nc2nccc(-c3cc4ccccc4s3)n2)cc1)N1CCC(N2CCCC2)CC1 [IKK-16] | 1.67 °C

# get_value(readout='ΔTm at 10 µM', item= O=C(NC(NC(=S)Nc1ccc(F)c([N+](=O)[O-])c1)C(Cl)(Cl)Cl)C(c1ccccc1)c1ccccc1 (centres unmarked) [CGK733] ) 1.17 °C

====

Measured ΔTm at 10 µM, listed per entry for reference.
target under test: ERK3 kinase domain (Homo sapiens)
Construct: The kinase domain of ERK3 (M9-I327) was subcloned into pNIC28–Bsa4; His6 (N, cleaved yes); made in house; host or cells: E. coli (co-expressed with lambda phosphatase)
method summary: Melting temperature assay (differential scanning fluorimetry, DSF)
Format: binding
test parameters: Table S2; average of two repeats ± standard deviation; read-out: ΔTm Follow Up
Experimental: The ERK3 kinase domain at 2 µM in 10 mM HEPES pH 7.5 and 500 mM NaCl was mixed with 10 µM inhibitors and SyPRO Orange at 1:1000 dilution. After 10 min incubation at room temperature, the fluorescence signal, which increases upon the temperature-dependent unfolding of ERK3 protein, was measured using Mx3005p real-time PCR machine (Stratagene, San Diego, CA, USA). The ∆Tm shifts were calculated using protocol described previously.
Supply the numeric figure in °C, leaving out any unit text.

Here are 4 molecules together with their reported answers.
• CCCN1CCC(c2ccc(Nc3nc(Nc4cc(F)ccc4C(N)=O)c4cc[nH]c4n3)c(OC)c2)CC1 [GSK1326255A] = -0.3
• O=C(Nc1ccc(Nc2nccc(Nc3cc(C4CCCC4)[nH]n3)n2)cc1)Nc1cccc(C(F)(F)F)c1 = 1
• CS(=O)(=O)CCNCc1ccc(-c2ccc3ncnc(Nc4ccc(OCc5ccccc5)c(Br)c4)c3c2)o1 [GW580496A] = 0.8
• O=C(c1ccc(Nc2nccc(-c3cc4ccccc4s3)n2)cc1)N1CCC(N2CCCC2)CC1 = 1.7

Let us examine a further case.
Bench note: what ΔTm at 10 µM did `CNC(=O)c1nn(C)c2c1C(C)(C)Cc1cnc(Nc3ccc(N4CCN(C)CC4)cc3)nc1-2` show? 2.5
